Tested on: K4 kissing-loop RNA reporter;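 also: bound reporter read as fluorescence of individual clusters on recovered sequencing chips by microscopy, with normalized cluster intensities fitted with a binding model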
Assay: apparent KD of K4 kissing-loop reporter; higher = weaker reporter binding
Conditions: Eterna round: R107; input ligand: theophylline 20 uM
Entries annotated with measured apparent KD of K4 kissing-loop reporter
Give the value; after it, write the unit.

// worked examples, apparent KD of K4 kissing-loop reporter included
UGACUGGACUGAAGGAGCGGGAAACUCCUAGUGAUGUUAGGAAUACGAGACAAAGUCUCGACCCAGGUAGGUCGCAGUCUAGUCU [ArgBS 17 #SwitchBubble #StaticStem] ... 0.116 µM
AAAUAGAUCAGUCACCCAGUGAUGUUGGAAGGAGCGUGCGAAAGCACAGGUAGGUCGCCAAAAUAAAAUUGGCUGAUCAAAAUAA ... 0.485 µM

Proceeding to the next sequence to report its apparent KD of K4 kissing-loop reporter.
Task: Requested field: apparent KD of K4 kissing-loop reporter. Item: GUCCACACUGCAGGAUAUGGAGGUAUAGCGAGGGAGUUUGGAAGCACACCUCUGGCAGUGAUGUUGCCAGAAGGGCGGUGCGGCG [Rauserin]
Output: 0.0643 µM

###

Tested on: MS2 coat protein
Assay: apparent KD of MS2 coat protein; designed switch direction (-1 OFF switch, 1 ON switch): -1; higher = weaker reporter binding
Details: input ligand: none
Entries annotated with measured apparent KD of MS2 coat protein
Your answer should be a plain number; it is taken to be in µM.

// worked examples, apparent KD of MS2 coat protein included
CAGAUGGGUAACUACACCCACAUGAGGAUCACCCAUGUACACAUAGCUUACGCUCGUCUUAAGCGUGUUUUCGUAGC [Eternabot (L2) Solution 10] (Eterna round: R97, puzzle: Sensor, turn-off variant 1) ... 0.0334
UAACAGCAAGGAUAUACGGGCUGUGCUUUUCAUUUCUUACAACAUGAGGAUCACCCAUGUAGAAGGUGCAACAA [Ex2 #6] (Eterna round: R97, puzzle: Exclusion 2) ... 0.0248
GAUCUGCAGCAGGAUAUGCUCUCGGAAACGAGCGCAGAAGGGCUGACAUGAGGAUCACCCAUGUAAUAAUGGCC [EX6 A.24] (Eterna round: R97, puzzle: Exclusion 6) ... 0.0442

Proceeding to the next sequence to report its apparent KD of MS2 coat protein.
Task: Lab note: need apparent KD of MS2 coat protein with MS2 coat protein for entry UUUUCACAUGAGGAUCACCCAUGUGAGGAUAUGGUUUCGCUGGCCGUAGCCAGUGGAACCAGAAGGCGCAUGAU [Mat - Exclusion 1 - JL Mod - D6] (Eterna round: R97, puzzle: Exclusion 1) , please look it up.
Output: 0.0302

###

Tested on: MS2 coat protein
Assay: apparent KD of MS2 coat protein, switch OFF state (with FMN for OFF switches, without FMN for ON switches); designed switch direction (-1 OFF switch, 1 ON switch): 1; higher = weaker reporter binding
Details: FMN input: 0 or 200 uM; Eterna round: R93 (includes R88 designs)
Quick rule: apparent KD of MS2 coat protein of at least 50 nM means Yes, below that means No.

AAAAAACAUGAGGAUCACCCAUGUCGAAAGACAUGAGGAUAUGUACAGACUUCGGUCUGUACAGAAGGCAUGUAAA [SS1 - 1016] ... Yes
AGGAAACAUGAGGAUCACCCAUGUAAGAUAAACUUAGGAUAUGCGAAAAGAAACAAAGAAGCAGAAGGAGGGAGAA [75%, Ex5 sub 1, 2] ... No
AACCGCGCUAUACAGGAUAUCACAAUAUCGACAUGAGGAUCACCCAUGUGACUGGCACCAGUCGGUGAGAAGGGUGAAGUGCGGC [Tilemage] ... Yes
AAGAUACAUGAGGAUCACCCAUGUUUUGGUGGGUCAGGAUAUAAAAAGAAUGAGAGAAAGUUAGAAGGGACAAAGA [JR_SS001_Sub005] ... Yes
GGAAGGAAGAGAGAGGAUAUCCAAAGGAAAACAUGAGGAUCACCCAUGUAAAAGGUAGGAAAUUGGGAGAAGGCUCAAAAGAGAG [salish99-ss2-036] ... No

Task: Could you verify whether the entry AACCAACAUGAGGAUCACCCAUGUCAACCCAAGGCAGGAUAUGCGAGAAUAACAAUGGGAGCAGAAGGGCCGACCU [ss1-3] shows apparent KD of MS2 coat protein of no less than 50 nM?
Output: Yes
